Entries and their measured melting point follow.
Quantity Name: melting point

[[record]]
compound = "C=C(C)C1C(=O)N(c2ccc(SC)cc2)C1c1cc(OC)c(OC)c(OC)c1 (stereo not drawn)"
experimental_result = "113 to 115 °C"

[[record]]
compound = "C=CCC1C(=O)N(c2cc(OC)c(OC)c(OC)c2)C1c1ccc(OC)c([N+](=O)[O-])c1 (stereo not drawn) [10q]"
experimental_result = "108 to 110 °C"

[[record]]
compound = "C=C(C)C1C(=O)N(c2cc(OC)c(OC)c(OC)c2)C1c1ccc2ccccc2c1 (stereo not drawn)"
experimental_result = "123 to 124 °C"

[[record]]
compound = "C=C/C=C/C1C(=O)N(c2cc(OC)c(OC)c(OC)c2)C1c1ccc(Cl)cc1 (stereo not drawn) [11b]"
experimental_result = "145 to 147 °C"

[[record]]
compound = "COc1cc(N2C(=O)C(C3C=CCC4C(=O)N(c5ccccc5)C(=O)C43)C2c2ccc(Cl)cc2)cc(OC)c1OC (stereo not drawn) [21a]"
experimental_result = "208 to 210 °C"

[[record]]
compound = "C=C/C=C/C1C(=O)N(c2cc(OC)c(OC)c(OC)c2)C1c1ccc(Br)cc1 (stereo not drawn) [11c]"
experimental_result = "153 to 155 °C"

[[record]]
compound = "COC(=O)C1=C(C(=O)OC)C(C2C(=O)N(c3cc(OC)c(OC)c(OC)c3)C2c2cccc3ccccc23)CC=C1 (single isomer, unassigned) [22a]"
experimental_result = "120 to 122 °C"

[[record]]
compound = "C=C(C)C1C(=O)N(c2cc(OC)c(OC)c(OC)c2)C1c1ccc(Oc2ccccc2)cc1 (stereo not drawn)"
experimental_result = "126 to 127 °C"

[[record]]
compound = "COc1ccc(C2C(C3C=CCC4C(=O)OC(=O)C43)C(=O)N2c2cc(OC)c(OC)c(OC)c2)cc1O (stereo not drawn) [21d]"
experimental_result = "224 to 225 °C"

[[record]]
compound = "C=C(C)C1C(=O)N(c2cc(OC)c(OC)c(OC)c2)C1c1ccc([N+](=O)[O-])cc1 (stereo not drawn)"
experimental_result = "129 to 130 °C"

[[record]]
compound = "COc1ccc(C2C(CC=Cc3ccccc3)C(=O)N2c2cc(OC)c(OC)c(OC)c2)cc1 (stereo not drawn) [17a]"
experimental_result = "103 to 104 °C"

[[record]]
compound = "C=C(C)C1C(=O)N(c2cc(OC)c(OC)c(OC)c2)C1c1ccc(Br)cc1 (stereo not drawn)"
experimental_result = "130 to 131 °C"

[[record]]
compound = "C=C/C=C/C1C(=O)N(c2cc(OC)c(OC)c(OC)c2)C1c1cccc2ccccc12 (stereo not drawn) [11m]"
experimental_result = "113 to 114 °C"

[[record]]
compound = "C=C(C)C1C(=O)N(c2cc(OC)c(OC)c(OC)c2)C1c1ccc(SC)cc1 (stereo not drawn)"
experimental_result = "99 to 100 °C"

[[record]]
compound = "C=C(C)C1C(=O)N(c2cc(OC)c(OC)c(OC)c2)C1c1ccccc1 (stereo not drawn)"
experimental_result = "108 to 109 °C"

[[record]]
compound = "C=C/C=C/C1C(=O)N(c2cc(OC)c(OC)c(OC)c2)C1c1ccc(Oc2ccccc2)cc1 (stereo not drawn) [11k]"
experimental_result = "119 to 120 °C"

[[record]]
compound = "C=CCC1C(=O)N(c2cc(OC)c(OC)c(OC)c2)C1c1ccc(F)cc1 (stereo not drawn) [10d]"
experimental_result = "89 to 90 °C"

[[record]]
compound = "CCCCOc1ccc(C2C(C3C=CCC4C(=O)N(c5ccccc5)C(=O)C43)C(=O)N2c2cc(OC)c(OC)c(OC)c2)cc1 (stereo not drawn) [21c]"
experimental_result = "163 to 164 °C"

[[record]]
compound = "C=C(C)C1C(=O)N(c2cc(OC)c(OC)c(OC)c2)C1c1ccc(OCCCC)cc1 (stereo not drawn)"
experimental_result = "55 to 57 °C"

[[record]]
compound = "C=C/C=C/C1C(=O)N(c2cc(OC)c(OC)c(OC)c2)C1c1ccc([N+](=O)[O-])cc1 (stereo not drawn) [11a]"
experimental_result = "133 to 134 °C"

[[record]]
compound = "C=C(C)C1C(=O)N(c2cc(OC)c(OC)c(OC)c2)C1c1ccc(F)cc1 (stereo not drawn)"
experimental_result = "99 to 100 °C"

[[record]]
compound = "C=C/C=C/C1C(=O)N(c2cc(OC)c(OC)c(OC)c2)C1c1ccc(OC)c([N+](=O)[O-])c1 (stereo not drawn) [11q]"
experimental_result = "88 to 90 °C"

[[record]]
compound = "C=C/C=C/C1C(=O)N(c2cc(OC)c(OC)c(OC)c2)C1c1ccc(OCC)cc1 (stereo not drawn) [11i]"
experimental_result = "73 to 75 °C"

[[record]]
compound = "C=C(C)C1C(=O)N(c2ccccc2)C1c1ccc(OC)cc1 (stereo not drawn)"
experimental_result = "104 to 105 °C"

[[record]]
compound = "COc1cc(N2C(=O)C(C3C=CCC4C(=O)OC(=O)C43)C2c2ccc(Br)cc2)cc(OC)c1OC (stereo not drawn) [21b]"
experimental_result = "242 to 244 °C"

[[record]]
compound = "C=C(C)C1C(=O)N(c2cc(OC)c(OC)c(OC)c2)C1c1ccc(C)cc1 (stereo not drawn)"
experimental_result = "102 to 104 °C"

[[record]]
compound = "C=C/C=C/C1C(=O)N(c2cc(OC)c(OC)c(OC)c2)C1c1ccc(F)cc1 (stereo not drawn) [11d]"
experimental_result = "137 to 139 °C"

[[record]]
compound = "C=C(C)C1C(=O)N(c2ccc(OC)cc2)C1c1cc(OC)c(OC)c(OC)c1 (stereo not drawn)"
experimental_result = "128 to 130 °C"

[[record]]
compound = "C=C/C=C/C1C(=O)N(c2cc(OC)c(OC)c(OC)c2)C1c1ccccc1 (stereo not drawn) [11f]"
experimental_result = "90 to 93 °C"

[[record]]
compound = "C=C(C)C1C(=O)N(c2ccc(OC)cc2)C1c1ccccc1 (stereo not drawn)"
experimental_result = "111 to 113 °C"

[[record]]
compound = "C=C(C)C1C(=O)N(c2cc(OC)c(OC)c(OC)c2)C1c1ccc(OCC)cc1 (stereo not drawn)"
experimental_result = "100 to 102 °C"

[[record]]
compound = "C=CCC1C(=O)N(c2cc(OC)c(OC)c(OC)c2)C1c1ccc(OCc2ccccc2)cc1 (stereo not drawn) [10l]"
experimental_result = "140 to 141 °C"

[[record]]
compound = "C=C(C)C1C(=O)N(c2ccc(OCC)cc2)C1c1cc(OC)c(OC)c(OC)c1 (stereo not drawn)"
experimental_result = "106 to 108 °C"

[[record]]
compound = "C=CC=CC1C(=O)N(c2cc(OC)c(OC)c(OC)c2)C1c1ccc(C)cc1 (stereo not drawn) [11g]"
experimental_result = "88 to 89 °C"

[[record]]
compound = "C=CCC1C(=O)N(c2cc(OC)c(OC)c(OC)c2)C1c1cccc2ccccc12 (stereo not drawn) [10m]"
experimental_result = "139 to 140 °C"

[[record]]
compound = "C=C(C)C1C(=O)N(c2cc(OC)c(OC)c(OC)c2)C1c1ccc(Cl)cc1 (stereo not drawn)"
experimental_result = "137 to 138 °C"

